Reported inhibition of growth at 50 µg/mL values follow for various compounds
tested on: Fusarium graminearum; experiment: Fungistatic activity against Fusarium graminearum assessed as inhibition of mycelial growth measured at 50 ug/mL at 28 degC after 72 hr relative to control; assay type: functional; conditions: read-out: GI
measured_parameter: inhibition of growth at 50 µg/mL (%)

>>> numeric_readout("CCCCSC(=O)NC(=O)c1csnn1")
10
>>> numeric_readout("CCCCCCCCOC(=O)NC(=O)c1csnn1")
81
>>> numeric_readout("CCCCCCSC(=O)NC(=O)c1csnn1")
75
>>> numeric_readout("CCCCCOC(=O)NC(=O)c1csnn1")
42
>>> numeric_readout("O=C(NC(=O)c1csnn1)OC1CCCCC1")
17
>>> numeric_readout("CCCCCCOC(=O)NC(=O)c1csnn1")
92
>>> numeric_readout("CCCCOC(=O)NC(=O)c1csnn1")
11
>>> numeric_readout("CCCCCCCCCCCOC(=O)NC(=O)c1csnn1")
78
>>> numeric_readout("CCCCCCCCCOC(=O)NC(=O)c1csnn1")
60
>>> numeric_readout("CCCCCCCCSC(=O)NC(=O)c1csnn1")
31
>>> numeric_readout("O=C(NC(=O)c1csnn1)OCCCCCCCCCCBr")
42
>>> numeric_readout("O=C(NC(=O)c1csnn1)OCCCCCCCCCCCCBr")
21
>>> numeric_readout("CCCSC(=O)NC(=O)c1csnn1")
54
>>> numeric_readout("CCCCCCCSC(=O)NC(=O)c1csnn1")
35

###

The following compounds are listed with their measured inhibition of growth at 50 µg/mL values.
system: Fusarium graminearum; assay: Fungistatic activity against Fusarium graminearum assessed as inhibition of mycelial growth measured at 50 ug/mL at 28 degC after 72 hr relative to control; format: functional; conditions: read-out: GI
measured_parameter: inhibition of growth at 50 µg/mL (%)

>>> numeric_readout("CCCCCCCCCCOC(=O)NC(=O)c1csnn1")
75
>>> numeric_readout("CCCCCCCCCCCCCCCCOC(=O)NC(=O)c1csnn1")
67
>>> numeric_readout("CC(C)CCOC(=O)NC(=O)c1csnn1")
100
>>> numeric_readout("CCCCCCCOC(=O)NC(=O)c1csnn1")
92
>>> numeric_readout("CCCCCCCCCCCCCCOC(=O)NC(=O)c1csnn1")
100

The origin of these recorded values is ChEMBL document CHEMBL3046311.
